Recorded values, source paper PMC4730229.

- target under test: GST-CLK2cd (CLK2 catalytic domain) (Homo sapiens, UniProt P49760)
- Construct: cDNA encoding the CLK2 catalytic domain (CLK2cd, amino acids 140–496); made in house; host or cells: Escherichia coli BL21(DE3)-R3-lambda-PPase
- Sequence (P49760 140-496): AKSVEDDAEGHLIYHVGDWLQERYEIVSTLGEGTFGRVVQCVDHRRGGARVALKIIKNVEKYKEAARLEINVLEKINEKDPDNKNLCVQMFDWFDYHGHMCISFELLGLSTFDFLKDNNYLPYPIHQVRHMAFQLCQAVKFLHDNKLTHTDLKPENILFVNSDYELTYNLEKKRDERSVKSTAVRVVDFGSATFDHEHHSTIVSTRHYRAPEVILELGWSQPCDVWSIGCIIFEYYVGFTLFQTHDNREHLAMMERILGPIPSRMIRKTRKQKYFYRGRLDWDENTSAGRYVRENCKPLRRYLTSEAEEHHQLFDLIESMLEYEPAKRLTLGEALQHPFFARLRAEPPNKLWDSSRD
- test protocol: High-throughput screen, Kinase-Glo in vitro kinase assay
- Format: biochemical
- condition summary: compound at 10 μM; read-out: percentage of inhibition on CLK2 (primary screen)
Quick rule for you: inhibition at 10 µM at 60% or higher means Met, lower means Not met.

# check: inhibition at 10 µM of CC(=O)Nc1nc2cc3c(cc2s1)OCO3 is greater than or equal to 60%
Not met

# check: inhibition at 10 µM of Cc1nc2c(ccc3nc(NC(=O)c4cccs4)sc32)s1 is greater than or equal to 60%
Not met

# check: inhibition at 10 µM of O=C(O)c1ccc(C(=O)Nc2ccccc2-c2nc3ccccc3[nH]2)cc1 is greater than or equal to 60%
Not met

# check: inhibition at 10 µM of COc1cc(C(=O)Nc2nc3ccc(S(=O)(=O)N4CCCCC4)cc3s2)cc(OC)c1OC is greater than or equal to 60%
Not met

# check: inhibition at 10 µM of COc1ccc(Cc2cnc(NC(=O)c3cc(C)oc3C)s2)cc1 is greater than or equal to 60%
Not met

# check: inhibition at 10 µM of O=C(Nc1cccc(-c2nc3ccccc3[nH]2)c1)c1ccc2ncsc2c1 is greater than or equal to 60%
Met

# check: inhibition at 10 µM of O=C(Nc1nc2c(s1)CCCC2)C1CC1 is greater than or equal to 60%
Not met

# check: inhibition at 10 µM of O=C(NCCO)c1ccc(Nc2nc(-c3ccccc3)c3cc(Cl)ccc3n2)cc1 is greater than or equal to 60%
Not met

# check: inhibition at 10 µM of CSc1nc2ccc3nc(NC(=O)c4ccco4)sc3c2s1 is greater than or equal to 60%
Not met

# check: inhibition at 10 µM of COCCNC(=O)c1cccc(Nc2nc(-c3ccccc3)c3cc(Cl)ccc3n2)c1 is greater than or equal to 60%
Not met

# check: inhibition at 10 µM of CCN1/C(=C/C(C)=O)Sc2ccc(OC)cc21 [TG003, reference compound] is greater than or equal to 60%
Met

# check: inhibition at 10 µM of Fc1ccc(-c2csc3ncnc(NCc4ccccc4)c23)cc1 is greater than or equal to 60%
Not met

# check: inhibition at 10 µM of O=C(Nc1cccc(-c2nc3ccccc3[nH]2)c1)c1ccc2nsnc2c1 is greater than or equal to 60%
Not met

# check: inhibition at 10 µM of COc1ccccc1C(=O)Nc1nc2ncccc2cc1-c1ccccc1 is greater than or equal to 60%
Not met

# check: inhibition at 10 µM of CC1(C)Cc2cccc(OCC(=O)Nc3cccc(-c4cc[nH]n4)c3)c2O1 is greater than or equal to 60%
Not met

# check: inhibition at 10 µM of Cc1nc2ccc3sc(NC(=O)c4ccc5ncsc5c4)nc3c2s1 is greater than or equal to 60%
Met

# check: inhibition at 10 µM of CSc1nc2ccc3nc(NC(=O)c4ccc(S(=O)(=O)N5CCOCC5)cc4)sc3c2s1 is greater than or equal to 60%
Not met

# check: inhibition at 10 µM of CC(=O)Nc1ccc(-c2nc3c(Cl)cccc3[nH]2)cc1 is greater than or equal to 60%
Not met
